Reference source: the supplement of paper PMC10567573

Quick reference for protein stability index among some variants
B1: KCNA1 (parent)
chain: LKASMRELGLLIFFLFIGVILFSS

variants of: B1; assay: protein stability index of a GFP-peptide fusion (GPS, HEK-293T) (PSI 1-6); higher = more stable; details: c terminus: a fixed tail appended;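 note: lentivirally expressed fusions sorted by FACS into six bins by GFP to DsRed ratio, PSI derived from sequencing read proportions per bin multiplied by bin number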
measurement name: protein stability index

INSERT INTO assay_data (var, measurement_name, meas_value) VALUES
  ('L10H', 'protein stability index', 3.23),
  ('F16I', 'protein stability index', 2.25),
  ('A3V', 'protein stability index', 1.67),
  ('S23L', 'protein stability index', 2.19),
  ('I12T', 'protein stability index', 4.06),
  ('L11H', 'protein stability index', 2.95),
  ('L10V', 'protein stability index', 1.23),
  ('L10Y', 'protein stability index', 2.13),
  ('A3S', 'protein stability index', 2.37),
  ('L8I', 'protein stability index', 2.27),
  ('K2H', 'protein stability index', 2.54),
  ('I12R', 'protein stability index', 4.06),
  ('L11E', 'protein stability index', 2.36),
  ('F22R', 'protein stability index', 2.24),
  ('S24A', 'protein stability index', 2.04),
  ('A3R', 'protein stability index', 1.74),
  ('K2G', 'protein stability index', 2.49),
  ('L21P', 'protein stability index', 2.86),
  ('K2D', 'protein stability index', 2.89),
  ('S4W', 'protein stability index', 1.55),
  ('G18L', 'protein stability index', 1.82),
  ('A3Y', 'protein stability index', 2.06);
